Every entry's value here was drawn from the supplement of paper PMC10849652.

- system: ZBTB21 (UniProt Q9ULJ3)
- Sequence (Q9ULJ3 whole entry, looked up): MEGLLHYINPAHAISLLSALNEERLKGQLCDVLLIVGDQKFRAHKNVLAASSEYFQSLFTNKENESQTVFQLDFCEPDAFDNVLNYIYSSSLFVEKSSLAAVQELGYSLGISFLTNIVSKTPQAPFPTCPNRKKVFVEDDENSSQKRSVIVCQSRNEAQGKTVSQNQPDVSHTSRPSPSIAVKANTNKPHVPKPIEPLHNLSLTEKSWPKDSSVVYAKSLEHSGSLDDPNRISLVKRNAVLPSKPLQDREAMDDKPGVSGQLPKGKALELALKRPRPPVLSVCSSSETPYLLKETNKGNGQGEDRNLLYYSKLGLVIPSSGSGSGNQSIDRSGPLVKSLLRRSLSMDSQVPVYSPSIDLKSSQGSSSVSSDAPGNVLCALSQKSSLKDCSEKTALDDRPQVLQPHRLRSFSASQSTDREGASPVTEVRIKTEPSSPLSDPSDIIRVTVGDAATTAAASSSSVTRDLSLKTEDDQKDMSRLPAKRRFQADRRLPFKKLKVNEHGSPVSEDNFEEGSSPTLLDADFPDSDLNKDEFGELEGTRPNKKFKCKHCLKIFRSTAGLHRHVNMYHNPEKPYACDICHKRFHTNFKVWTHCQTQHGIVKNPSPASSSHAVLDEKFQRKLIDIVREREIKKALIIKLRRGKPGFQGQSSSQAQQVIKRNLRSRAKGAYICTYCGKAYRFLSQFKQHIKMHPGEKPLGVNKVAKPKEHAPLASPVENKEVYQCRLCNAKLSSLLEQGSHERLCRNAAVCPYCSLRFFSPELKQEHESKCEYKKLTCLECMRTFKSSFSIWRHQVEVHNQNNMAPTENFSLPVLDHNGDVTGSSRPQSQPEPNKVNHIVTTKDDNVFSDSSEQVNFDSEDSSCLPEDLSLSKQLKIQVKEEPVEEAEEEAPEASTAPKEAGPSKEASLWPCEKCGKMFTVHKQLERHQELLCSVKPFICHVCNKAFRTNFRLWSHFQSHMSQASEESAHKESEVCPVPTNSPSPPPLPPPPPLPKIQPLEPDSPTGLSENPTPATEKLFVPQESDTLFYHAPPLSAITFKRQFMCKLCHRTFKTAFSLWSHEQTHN
- test-summary: log2 fold change, soluble protein after heating vs DMSO (PISA); higher = thermal stabilisation; K562 cells, 10 uM, 30 min; active = over 0.2 and 3.5 SD of the protein, either way, in both replicates (recomputed)
Of roughly 7,900 targets only a part is listed; those with a hit were picked by preference. About 0.6% of all pairs of compound and target were hits.
endpoint-name: log2 fold change

[[record]]
molecular_string = "CC(=O)c1cnc2ccc(-c3cc(Cl)c(O)c(Cl)c3)nc2c1N[C@H]1CC[C@H](CN(C)C)CC1"
endpoint_name = "log2 fold change"
test_value = -0.42

[[record]]
molecular_string = "Cc1ccc(-n2nc(C(C)(C)C)cc2NC(=O)Nc2ccc(OCCN3CCOCC3)c3ccccc23)cc1"
endpoint_name = "log2 fold change"
test_value = 0.069

[[record]]
molecular_string = "Cc1cn(-c2cc(NC(=O)c3ccc(C)c(Nc4nccc(-c5cccnc5)n4)c3)cc(C(F)(F)F)c2)cn1"
endpoint_name = "log2 fold change"
test_value = 0.023

[[record]]
molecular_string = "Cn1cc(-c2ccc3nnc(C(F)(F)c4ccc5ncccc5c4)n3n2)cn1"
endpoint_name = "log2 fold change"
test_value = -0.009


###

# reported log2 fold change; entries follow
- system: ZFP91 (UniProt Q96JP5)
- Sequence (Q96JP5 whole entry, looked up): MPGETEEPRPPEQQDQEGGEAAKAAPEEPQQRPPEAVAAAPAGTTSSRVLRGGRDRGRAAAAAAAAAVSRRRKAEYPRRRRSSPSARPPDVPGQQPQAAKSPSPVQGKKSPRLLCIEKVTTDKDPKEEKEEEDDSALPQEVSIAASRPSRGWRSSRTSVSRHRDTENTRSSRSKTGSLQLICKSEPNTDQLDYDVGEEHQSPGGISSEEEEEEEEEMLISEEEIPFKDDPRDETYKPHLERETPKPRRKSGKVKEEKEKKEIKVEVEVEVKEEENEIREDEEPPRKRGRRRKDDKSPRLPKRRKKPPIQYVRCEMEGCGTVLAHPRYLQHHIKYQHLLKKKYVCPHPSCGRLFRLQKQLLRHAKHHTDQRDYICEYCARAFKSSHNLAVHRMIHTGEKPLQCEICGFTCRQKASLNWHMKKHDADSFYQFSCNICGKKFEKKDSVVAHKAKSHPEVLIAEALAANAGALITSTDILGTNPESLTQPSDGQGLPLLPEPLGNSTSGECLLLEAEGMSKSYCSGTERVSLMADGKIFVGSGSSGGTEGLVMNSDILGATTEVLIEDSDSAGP
- test-summary: log2 fold change, soluble protein after heating vs DMSO (PISA); higher = thermal stabilisation; K562 cells, 10 uM, 30 min; active = over 0.2 and 3.5 SD of the protein, either way, in both replicates (recomputed)
About 7,900 targets were measured; listed, in parts, are those with a hit and a random draw of the rest. About 0.6% of all pairs of compound and target were hits.
endpoint-name: log2 fold change

[[record]]
molecular_string = "NCC(=O)Nc1ccc(-n2nc(C(F)(F)F)cc2-c2ccc3c(ccc4ccccc43)c2)cc1"
endpoint_name = "log2 fold change"
test_value = 0.036

[[record]]
molecular_string = "CCCc1cc(C)[nH]c(=O)c1CNC(=O)c1cc(-c2ccnc(N3CCN(C)CC3)c2)cc2c1cnn2C(C)C"
endpoint_name = "log2 fold change"
test_value = 0.074

[[record]]
molecular_string = "Cc1ccc(NC(=O)c2cccc(C(C)(C)C#N)c2)cc1Nc1ccc2ncn(C)c(=O)c2c1"
endpoint_name = "log2 fold change"
test_value = 0.017


###

- system: ZMYM3 (UniProt Q14202)
- Sequence (Q14202 whole entry, looked up): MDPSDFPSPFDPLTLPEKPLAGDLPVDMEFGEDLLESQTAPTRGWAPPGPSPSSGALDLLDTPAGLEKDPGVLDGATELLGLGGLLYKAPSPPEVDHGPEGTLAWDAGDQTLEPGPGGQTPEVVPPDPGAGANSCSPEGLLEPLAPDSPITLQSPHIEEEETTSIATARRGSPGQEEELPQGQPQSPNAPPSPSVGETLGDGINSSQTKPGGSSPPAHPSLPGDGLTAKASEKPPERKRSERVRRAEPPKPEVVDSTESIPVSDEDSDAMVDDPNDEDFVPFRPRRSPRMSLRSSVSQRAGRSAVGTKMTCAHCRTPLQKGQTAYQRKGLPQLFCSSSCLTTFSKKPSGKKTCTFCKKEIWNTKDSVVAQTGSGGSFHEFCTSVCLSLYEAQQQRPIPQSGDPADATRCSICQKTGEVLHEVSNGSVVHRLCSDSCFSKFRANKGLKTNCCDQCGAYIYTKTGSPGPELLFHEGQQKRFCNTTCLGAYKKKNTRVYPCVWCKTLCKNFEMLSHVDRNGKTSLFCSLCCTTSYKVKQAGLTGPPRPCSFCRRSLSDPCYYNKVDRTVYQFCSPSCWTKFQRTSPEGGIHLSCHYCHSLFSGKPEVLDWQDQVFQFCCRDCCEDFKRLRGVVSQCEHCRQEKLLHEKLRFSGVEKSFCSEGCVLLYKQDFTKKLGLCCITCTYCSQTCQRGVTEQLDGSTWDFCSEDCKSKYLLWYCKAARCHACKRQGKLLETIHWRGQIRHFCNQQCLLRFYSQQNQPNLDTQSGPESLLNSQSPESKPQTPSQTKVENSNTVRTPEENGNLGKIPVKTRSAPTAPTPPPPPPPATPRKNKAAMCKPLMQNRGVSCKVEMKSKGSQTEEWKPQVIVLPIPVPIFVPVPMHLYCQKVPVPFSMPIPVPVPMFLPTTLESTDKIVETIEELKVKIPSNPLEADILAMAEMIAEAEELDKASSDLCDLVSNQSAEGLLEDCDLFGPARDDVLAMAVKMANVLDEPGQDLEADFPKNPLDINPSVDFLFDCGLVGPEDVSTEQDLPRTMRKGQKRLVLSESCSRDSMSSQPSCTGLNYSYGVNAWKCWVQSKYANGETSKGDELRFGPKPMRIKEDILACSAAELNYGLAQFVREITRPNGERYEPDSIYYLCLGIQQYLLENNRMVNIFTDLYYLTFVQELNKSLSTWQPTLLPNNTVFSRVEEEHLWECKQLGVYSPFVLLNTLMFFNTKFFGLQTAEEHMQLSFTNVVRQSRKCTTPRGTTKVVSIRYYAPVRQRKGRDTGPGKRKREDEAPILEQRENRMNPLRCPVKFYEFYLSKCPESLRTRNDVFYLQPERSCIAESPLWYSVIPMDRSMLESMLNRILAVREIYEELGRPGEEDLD
- test-summary: log2 fold change, soluble protein after heating vs DMSO (PISA); higher = thermal stabilisation; K562 cells, 10 uM, 30 min; active = over 0.2 and 3.5 SD of the protein, either way, in both replicates (recomputed)
About 7,900 targets were measured; listed, in parts, are those with a hit and a random draw of the rest. About 0.6% of all pairs of compound and target were hits.
Tick label 1 if log2 fold change is 0 or greater. Tick label 0 if log2 fold change is less than 0.

[[record]]
compound = "CCn1cc(-c2ccnc3[nH]c(-c4cccc(CN(C)C)c4)cc23)c(-c2ccc(NC(=O)N(C)C)cc2)n1"
label = "label 1"

[[record]]
compound = "CC[C@@H]1C(=O)N(C)c2cnc(Nc3ccc(C(=O)N[C@H]4CC[C@H](N5CCN(CC6CC6)CC5)CC4)cc3OC)nc2N1C(C)C [volasertib]"
label = "label 0"

[[record]]
compound = "CC(C)(O)CC(=O)NCCn1ccc2ncnc(Nc3ccc(Oc4cccc(C(F)(F)F)c4)c(Cl)c3)c21"
label = "label 1"

[[record]]
compound = "COc1cccc2cc(-c3nc([C@H]4CC[C@H](C(=O)O)CC4)n4ncnc(N)c34)[nH]c12"
label = "label 1"

[[record]]
compound = "Cc1nc(Nc2n[nH]c3c2CN(C(=O)N[C@H](CN(C)C)c2ccccc2)C3(C)C)c2sccc2n1"
label = "label 0"

[[record]]
compound = "Cc1ccc2c(=O)c3ccccc3n(CCCN)c2c1C"
label = "label 0"

[[record]]
compound = "CC[C@H](C)n1cc(C)c2c(C(=O)NCc3c(C)cc(C)[nH]c3=O)cc(-c3ccc(N4CCNCC4)nc3)cc21"
label = "label 1"

[[record]]
compound = "NC(=O)c1cnc(N[C@@H]2CCCC[C@@H]2N)nc1Nc1cccc(-n2nccn2)c1"
label = "label 1"

[[record]]
compound = "Cc1nc(Nc2ncc(C(=O)Nc3c(C)cccc3Cl)s2)cc(N2CCN(CCO)CC2)n1 [dasatinib]"
label = "label 1"

[[record]]
compound = "Cn1cc(-c2ccc3nnc(C(F)(F)c4ccc5ncccc5c4)n3n2)cn1"
label = "label 0"

[[record]]
compound = "NCC(=O)Nc1ccc(-n2nc(C(F)(F)F)cc2-c2ccc3c(ccc4ccccc43)c2)cc1"
label = "label 1"

[[record]]
compound = "COC(=O)[C@H](CCSC)NC(=O)c1ccc(NC[C@@H](N)CS)cc1-c1ccccc1"
label = "label 1"

[[record]]
compound = "CON(C)C(=O)N1N=C(c2cc(F)ccc2F)S[C@@]1(CCCN)c1ccccc1 [filanesib]"
label = "label 1"

[[record]]
compound = "NC1(Cc2ccc(Cl)cc2)CCN(c2ncnc3[nH]ccc23)CC1"
label = "label 1"

[[record]]
compound = "O=C1NC(=O)C(c2cnc3ccccn23)=C1c1cn2c3c(cc(F)cc13)CN(C(=O)N1CCCCC1)CC2"
label = "label 1"

[[record]]
compound = "O=C(O)c1ccc2c(c1)nc(Nc1cccc(Cl)c1)c1ccncc12 [silmitasertib]"
label = "label 0"

[[record]]
compound = "CC(C)N(C[C@H]1O[C@@H](n2cnc3c(N)ncnc32)[C@H](O)[C@@H]1O)[C@H]1C[C@@H](CCc2nc3cc(C(C)(C)C)ccc3[nH]2)C1 [pinometostat]"
label = "label 0"


###

- system: YWHAQ (UniProt P27348)
- Sequence (P27348 whole entry, looked up): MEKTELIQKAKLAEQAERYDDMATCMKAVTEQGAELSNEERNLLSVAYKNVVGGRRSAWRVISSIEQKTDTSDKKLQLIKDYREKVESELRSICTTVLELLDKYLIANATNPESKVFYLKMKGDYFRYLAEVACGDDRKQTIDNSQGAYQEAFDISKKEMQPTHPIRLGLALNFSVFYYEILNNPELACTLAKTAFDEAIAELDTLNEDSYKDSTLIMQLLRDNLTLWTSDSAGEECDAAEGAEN
- test-summary: log2 fold change, soluble protein after heating vs DMSO (PISA); higher = thermal stabilisation; K562 cells, 10 uM, 30 min; active = over 0.2 and 3.5 SD of the protein, either way, in both replicates (recomputed)
The full data set covers some 7,900 targets. This sample favours those with a hit. About 0.6% of all pairs of compound and target were hits.
# maps each entry to its log2 fold change
endpoint-name: log2 fold change

[[record]]
compound = "O=C(O)c1ccc2c(c1)nc(Nc1cccc(Cl)c1)c1ccncc12 [silmitasertib]"
endpoint_name = "log2 fold change"
test_value = 0

[[record]]
compound = "O=C(CCCCCCC(=O)Nc1ccccc1)NO [vorinostat]"
endpoint_name = "log2 fold change"
test_value = 0.39

[[record]]
compound = "CN1CCN(CCOc2cc(OC3CCOCC3)c3c(Nc4c(Cl)ccc5c4OCO5)ncnc3c2)CC1 [saracatinib]"
endpoint_name = "log2 fold change"
test_value = 0.234


###

- system: ZWILCH (UniProt Q9H900)
- Sequence (Q9H900 whole entry, looked up): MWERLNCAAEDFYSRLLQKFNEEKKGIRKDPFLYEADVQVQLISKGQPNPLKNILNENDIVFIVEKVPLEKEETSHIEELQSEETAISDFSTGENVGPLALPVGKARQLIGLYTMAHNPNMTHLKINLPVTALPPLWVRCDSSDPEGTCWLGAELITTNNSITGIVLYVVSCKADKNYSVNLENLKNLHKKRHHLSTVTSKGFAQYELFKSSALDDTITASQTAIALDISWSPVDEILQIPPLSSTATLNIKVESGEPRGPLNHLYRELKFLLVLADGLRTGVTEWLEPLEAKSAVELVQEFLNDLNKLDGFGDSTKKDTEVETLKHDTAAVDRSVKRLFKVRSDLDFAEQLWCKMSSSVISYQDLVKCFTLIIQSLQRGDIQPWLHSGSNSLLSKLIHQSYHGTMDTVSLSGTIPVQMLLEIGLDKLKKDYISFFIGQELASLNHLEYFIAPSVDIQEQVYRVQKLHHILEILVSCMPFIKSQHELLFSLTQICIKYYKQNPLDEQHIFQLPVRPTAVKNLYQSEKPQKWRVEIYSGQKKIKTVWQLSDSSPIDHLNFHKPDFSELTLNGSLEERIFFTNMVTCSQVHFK
- test-summary: log2 fold change, soluble protein after heating vs DMSO (PISA); higher = thermal stabilisation; K562 cells, 10 uM, 30 min; active = over 0.2 and 3.5 SD of the protein, either way, in both replicates (recomputed)
About 7,900 targets were measured; listed, in parts, are those with a hit and a random draw of the rest. About 0.6% of all pairs of compound and target were hits.
Please use True whenever log2 fold change is not below -0.03, and False whenever it is.

[[record]]
compound = "C[C@@H](N)c1ccc(C(=O)Nc2ccnc3[nH]ccc23)cc1"
label = "True"

[[record]]
compound = "Cc1ccc(NC(=O)c2ccc(CN3CC[C@H](N(C)C)C3)c(C(F)(F)F)c2)cc1Nc1nccc(-c2cncnc2)n1"
label = "False"

[[record]]
compound = "C=CC(=O)N1CCC[C@@H](n2nc(-c3ccc(Oc4ccccc4)cc3)c3c(N)ncnc32)C1"
label = "True"

[[record]]
compound = "CN(CCOc1ccc(C[C@@H]2SC(=O)NC2=O)cc1)c1ccccn1 (racemic)"
label = "True"

[[record]]
compound = "Cc1ccc(Sc2cncc3sc(C(N)=O)cc23)cc1"
label = "False"

[[record]]
compound = "CCCS(=O)(=O)Nc1ccc(F)c(C(=O)c2c[nH]c3ncc(-c4ccc(Cl)cc4)cc23)c1F"
label = "True"

[[record]]
compound = "Cn1cc(-c2ccc3nnc(C(F)(F)c4ccc5ncccc5c4)n3n2)cn1"
label = "False"


###

- system: YIPF5 isoform 3 (UniProt Q969M3)
- Sequence (Q969M3 whole entry, looked up, canonical isoform): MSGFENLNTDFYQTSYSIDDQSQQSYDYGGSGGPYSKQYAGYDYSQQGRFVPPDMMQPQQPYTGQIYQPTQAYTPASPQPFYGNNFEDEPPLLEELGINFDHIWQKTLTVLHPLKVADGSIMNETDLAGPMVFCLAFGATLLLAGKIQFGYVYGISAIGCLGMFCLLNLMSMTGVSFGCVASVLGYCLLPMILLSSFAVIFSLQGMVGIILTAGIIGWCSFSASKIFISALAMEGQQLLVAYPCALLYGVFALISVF
- test-summary: log2 fold change, soluble protein after heating vs DMSO (PISA); higher = thermal stabilisation; K562 cells, 10 uM, 30 min; active = over 0.2 and 3.5 SD of the protein, either way, in both replicates (recomputed)
Of roughly 7,900 targets only a part is listed; those with a hit were picked by preference. About 0.6% of all pairs of compound and target were hits.
Decide by log2 fold change: equal to or exceeding 0.02 means 1, less means 0.

[[record]]
compound = "O=C(Nc1cccc(Nc2ncc(Br)c(NCCc3cnc[nH]3)n2)c1)N1CCCC1"
label = 1

[[record]]
compound = "Oc1cc(-c2nc(-c3ccccc3)[nH]c2-c2ccncc2)ccc1Cl"
label = 0

[[record]]
compound = "CC[C@@H]1C(=O)N(C)c2cnc(Nc3ccc(C(=O)N[C@H]4CC[C@H](N5CCN(CC6CC6)CC5)CC4)cc3OC)nc2N1C(C)C [volasertib]"
label = 1

[[record]]
compound = "CNCc1ccc(-c2[nH]c3cc(F)cc4c3c2CCNC4=O)cc1 [rucaparib]"
label = 0

[[record]]
compound = "NC1(c2ccc(-c3nc4ccn5c(=O)[nH]nc5c4cc3-c3ccccc3)cc2)CCC1"
label = 0

[[record]]
compound = "Fc1ccc(Cl)cc1-c1nc(Nc2ccncc2)c2nccnc2n1"
label = 1

